# assay_name: TD Phase (Groups 1 and 3): plasma and ocular tissue concentrations and pharmacokinetics of Compound 18 and its metabolite Compound 4 after once daily ocular instillation of Compound 18 nanosuspension for 7 days
# Format: in vivo, New Zealand white rabbits
# condition: male, New Zealand white, rabbit, topical or ocular, 0.8 mg/kg/day; aqueous humor, Day 7, from mean concentrations
value_kind: Tmax (h)
Numbers only, in h.

[
  {
    "chemical_structure": "CCCc1nn(C)c2c(=O)[nH]c(-c3cc(S(=O)(=O)N4CC(CCCO[N+](=O)[O-])C4)ccc3OCC)nc12",
    "value_kind": "Tmax",
    "value_reported": 1
  }
]

-- ask Look up Tmax: "CCCc1nn(C)c2c(=O)[nH]c(-c3cc(S(=O)(=O)N4CC(CCCO)C4)ccc3OCC)nc12"
-- reply 1
